Reference for the values: paper PMC7826789

Measured Percent Control by item
test system: NEK6; details: Compound Concentration (nM):1000;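 note: KINOMEscan scanMAX binding as percent activity remaining versus control; lower means stronger binding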
Field format: number, assumed %, no unit text.

Observe how each entry below is paired with its result.
# COMPOUND, RECORDED NUMBER
data = [
    ("CCn1c(-c2nonc2N)nc2c(C#CC(C)(C)O)nc(OCCNC)cc21.Cl", 95),
    ("CCc1ccc(Oc2nccc(-c3c(-c4ccc(F)cc4)ncn3C3CCNCC3)n2)cc1", 100),
    ("CN(C)c1cc2c(Nc3ccc4c(cnn4Cc4ccccc4)c3)ncnc2cn1 [GW282974X]", 27),
]

// returns reported Percent Control for input NS(=O)(=O)c1ccc(N/N=C2\C(=O)Nc3ccc(Cl)cc32)cc1 [GW280670X]
100

Please do the same for O=C1Nc2ccc(C(=O)c3ccco3)cc2C1=Cc1cc(Cl)c(O)c(Cl)c1 [GW406108X] as well.
94

###

test system: DYRK1B; conditions: Compound Concentration (nM):1000
Measured Percent Control by item
Field format: number, assumed %, no unit text.

Observe how each entry below is paired with its result.
# COMPOUND, TESTED TARGET, UNIT ABBREV, Percent Control
records = [
    ("Cl.O=C(Nc1ccc(Oc2ccc3[nH]c(NC(=O)c4ccccc4)nc3c2)cc1)Nc1cc(C(F)(F)F)ccc1F [GW709042A]", "DYRK1B", "%", 100),
    ("COC(=O)Nc1nc2ccc(Oc3ccc(NC(=O)Nc4cc(C(F)(F)F)ccc4F)cc3)cc2s1.Cl [GW693917A]", "DYRK1B", "%", 100),
    ("COc1ccc(COc2ccc(Cc3cnc(N)nc3N)cc2OC)cc1 [GW632580X]", "DYRK1B", "%", 100),
    ("NS(=O)(=O)c1ccc(N/N=C2\\C(=O)Nc3ccc(-c4cnco4)cc32)cc1 [GW276655]", "DYRK1B", "%", 79),
]

// returns reported Percent Control for input CN(C)c1cc2c(Nc3ccc4c(cnn4Cc4ccccc4)c3)ncnc2cn1 [GW282974X]
100

###

tested on: MEK6; construct: gene MAP2K6; conditions: Compound Concentration (nM):1000
Measured Percent Control by item

Observe how each entry below is paired with its result.
# MOLECULE, Percent Control
data = [
    ("Cl.O=C(O[C@H]1CN[C@H](C#Cc2cc3ncnc(Nc4ccc5c(cnn5Cc5ccccc5)c4)c3s2)C1)N1CCOCC1 [GSK200398A]", "71%"),
    ("O=C(Nc1n[nH]c2nc(-c3ccc(O)cc3)c(Br)cc12)C1CC1", "98%"),
    ("C/C(Nc1ccc(S(N)(=O)=O)cc1)=C1/C(=O)Nc2ccccc21 [GW335962X]", "74%"),
    ("Cl.c1ccc(Cc2nc3ccc(Nc4ncnc5ccccc45)cc3[nH]2)cc1 [GR269666A]", "92%"),
    ("COc1cc2ncn(-c3cc(O[C@H](C)c4ccccc4Cl)c(C(N)=O)s3)c2cc1OC [GSK237701A]", "84%"),
    ("COC(=O)Nc1nc2ccc(Oc3ccc(NC(=O)Nc4cc(C(F)(F)F)ccc4F)cc3)cc2s1.Cl [GW693917A]", "98%"),
    ("COc1ccc2[nH]c3c4[nH]c5ccc(OC)cc5c4c4c(c3c2c1)C(=O)NC4=O [GW296115X]", "97%"),
    ("COc1cc(C=NNc2ncnc3c2cnn3-c2ccccc2)ccc1O [GW513184X]", "100%"),
    ("Cl.O=C(Nc1ccc(Oc2ccc3[nH]c(NC(=O)c4ccccc4)nc3c2)cc1)Nc1cc(C(F)(F)F)ccc1F [GW709042A]", "86%"),
    ("CC1=C(C(=O)Nc2ccc3[nH]ncc3c2)C(c2ccc3ccccc3c2)CC(=O)N1 (stereo not drawn) [GSK270822A]", "92%"),
]

// returns reported Percent Control for input COc1ccc2c(-c3ccnc(Nc4cccc(OC(F)(F)F)c4)n3)cnn2n1 [GW810372X]
78%

Please do the same for CN(C)CCNC(=O)Nc1ccc(N(C)c2ccnc(Nc3ccc(CS(C)(=O)=O)cc3)n2)cc1.Cl [GW830900A] as well.
100%

Please do the same for COc1cccc(-n2ncc3c(N/N=C/c4ccncc4)ncnc32)c1 [GW784752X] as well.
87%

Please do the same for CCS(=O)(=O)c1ccc(OC)c(Nc2ncc(-c3cccc(OC)c3)o2)c1 [GW580509X] as well.
92%

###

Measured Percent Control by item
tested on: TNK1; conditions: Compound Concentration (nM):1000
Field format: number, assumed %, no unit text.

# COMPOUND, UNIT ABBREV, Percent Control
records = [
    ("NS(=O)(=O)c1ccc(N/N=C2\\C(=O)Nc3ccc(C(=O)NCCc4c[nH]cn4)cc32)cc1 [GW300660X]", "%", 100),
    ("COc1cccc(-c2c[nH]c3c(N/N=C/c4ccncc4)ncnc23)c1 [GW814408X]", "%", 100),
    ("NS(=O)(=O)c1ccc(N/N=C2\\C(=O)Nc3ccc(-c4cnco4)cc32)cc1 [GW276655]", "%", 52),
    ("Cl.O=C(O[C@H]1CN[C@H](C#Cc2cc3ncnc(Nc4ccc5c(cnn5Cc5ccccc5)c4)c3s2)C1)N1CCOCC1 [GSK200398A]", "%", 99),
    ("Cl.O=C(Nc1ccc(Oc2ccc3[nH]c(NC(=O)c4ccco4)nc3c2)cc1)Nc1cc(C(F)(F)F)ccc1F [GW683134A]", "%", 36),
]

// returns reported Percent Control for input CC(C)COC(=O)c1ccc2c(c1)/C(=C/Nc1ccc(S(N)(=O)=O)cc1)C(=O)N2 [GW416981X]
100

###

Measured Percent Control by item
tested on: CDK7; settings: Compound Concentration (nM):1000
Field format: number, assumed %, no unit text.

# COMPOUND, Percent Control / %
rows = [
    ("COc1cc(/C=N/Nc2ncnc3[nH]ncc23)ccc1O [GW578748X]", 70),
    ("CN(C)CCNC(=O)Nc1ccc(N(C)c2ccnc(Nc3ccc(CS(C)(=O)=O)cc3)n2)cc1.Cl [GW830900A]", 65),
]

// returns reported Percent Control for input Cl.c1ccc(Cc2nc3ccc(Nc4ncnc5ccccc45)cc3[nH]2)cc1 [GR269666A]
100

Please do the same for CCc1ccc(Oc2nccc(-c3c(-c4ccc(F)cc4)ncn3C3CCNCC3)n2)cc1 as well.
88

Please do the same for Cl.O=C(Nc1ccc(Oc2ccc3[nH]c(NC(=O)c4ccco4)nc3c2)cc1)Nc1cc(C(F)(F)F)ccc1F [GW683134A] as well.
12

###

system: HASPIN; construct: gene GSG2; details: Compound Concentration (nM):1000
REPORTED PROPERTY: Percent Control
Report the figure along with its unit, number first.

Observe how each entry below is paired with its result.
# MOLECULE, Percent Control
records = [
    ("Cc1cc(O)cc(C)c1/C=C/c1cncc(C(N)=O)c1 [GW435821X]", "55%"),
    ("NS(=O)(=O)c1ccc(Nc2ncc(-c3ccccc3)o2)cc1 [GW572399X]", "100%"),
]

// next item, Percent Control requested
# value lookup — system HASPIN, readout Percent Control, item CCc1ccc(Oc2nccc(-c3c(-c4ccc(F)cc4)ncn3C3CCNCC3)n2)cc1
86%

###

tested on: PLK1; details: Compound Concentration (nM):1000
Measured Percent Control by item
Field format: number, assumed %, no unit text.

Observe how each entry below is paired with its result.
# COMPOUND, Percent Control / %
records = [
    ("O=C1Nc2ccc(C(=O)c3ccco3)cc2C1=Cc1cc(Cl)c(O)c(Cl)c1 [GW406108X]", 49),
    ("COc1ccc(COc2ccc(Cc3cnc(N)nc3N)cc2OC)cc1 [GW632580X]", 100),
    ("C/C(Nc1ccc(S(N)(=O)=O)cc1)=C1/C(=O)Nc2ccccc21 [GW335962X]", 90),
]

// next item, Percent Control requested
// returns reported Percent Control for input COC(=O)Nc1nc2ccc(Oc3ccc(NC(=O)Nc4cc(C(F)(F)F)ccc4F)cc3)cc2s1.Cl [GW693917A]
67

###

Measured Percent Control by item
system: JNK2; construct: gene MAPK9; conditions: Compound Concentration (nM):1000
Field format: number, assumed %, no unit text.

# COMPOUND, UNIT ABBREV, RECORDED NUMBER
rows = [
    ("COc1ccc2[nH]c3c4[nH]c5ccc(OC)cc5c4c4c(c3c2c1)C(=O)NC4=O [GW296115X]", "%", 55),
    ("CC1=C(C(=O)Nc2ccc3[nH]ncc3c2)C(c2ccc(Cl)c(Cl)c2)CC(=O)N1 (stereo not shown) [GSK299115A]", "%", 73),
    ("COc1cc2ncn(-c3cc(O[C@H](C)c4ccccc4Cl)c(C(N)=O)s3)c2cc1OC [GSK237701A]", "%", 79),
]

// returns reported Percent Control for input CCS(=O)(=O)c1ccc(OC)c(Nc2ncc(-c3cccc(OC)c3)o2)c1 [GW580509X]
89
